assay: NCI Yeast Anticancer Drug Screen. Data for the sgs1 mgt1 strain (AID 161);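 further: 0% = growth of cultures given vehicle only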
measurement.parameters: S. cerevisiae sgs1 mgt1 strain, at 50.0 µM, hits give high values
The panel holds about 79,000 compounds, 15% with a hit somewhere; the sample as a whole holds those more often.
Item-by-item account of growth inhibition

| compound | units.of.measure | growth inhibition |
| --- | --- | --- |
| Cc1[nH]c2ccccc2c1C(C)CC(O)c1ccccc1 (stereo unspecified) | % | 90.2 |
| c1ccc2c(c1)Cc1nc3ccccc3nc1-2 | % | 90.6 |
| COc1ccc(C(c2ccccc2C(=O)O)c2ccc(OC)c3ccccc23)c2ccccc12 | % | 87.8 |
| Cc1ccc(C2(C)CC/C(=N/O)c3cc(C)c(C)cc32)cc1C (stereo unspecified) | % | 88.7 |
| CCOc1c(N=Nc2ccc(Cl)cc2)c(-c2ccccc2)nn1C(=S)S | % | 92 |
| CN1CCN(CCn2c3c4ccccc4ccc3c3oc(=O)c4ccccc4c32)CC1 | % | 91.2 |

---

assay: NCI Yeast Anticancer Drug Screen. Data for the mlh1 rad18 strain (AID 175)
measurement.parameters: S. cerevisiae mlh1 rad18 strain growth inhibition; at 50.0 µM (retest, dose inferred, filed as 5.0); hits give high values
Procedure: Growth inhibition of yeast strains with defined genetic alterations is measured as a screen for potential anti-cancer activity. Selected strains with alterations in DNA damage repair or cell cycle control were exposed to compounds and growth inhibition was measured relative to vehicle treated controls. The strain used in this assay is mlh1 rad18
About 79,000 compounds went through this panel and 15% of them were active in at least one assay; those are over-represented in the sample as a whole.

| compound | units.of.measure | growth inhibition |
| --- | --- | --- |
| CCSC(=Nc1nc2ccc(NC(C)=O)cc2s1)SCC | % | 96 |
| CC12CCC3C(CCC4CC(O)CCC43C)C1CC1C2=NOC1O (centres undefined) | % | 99 |
| C=CNC(=O)Oc1ccccc1 | % | -130 |
| CSc1cc(N)nc(N)n1 | % | -6 |
| O=C1/C(=C/c2ccccc2)CNC/C1=C\c1ccccc1 | % | 98 |
| CC1=C[P+](c2ccccc2)(c2ccccc2)C=C(c2ccccc2)O1 | % | 93 |
| CCCCn1c(C)nc2cc(C(F)(F)F)cc(N)c21 | % | 65 |
| COc1ccc2nc3cccc([N+](=O)[O-])c3c(NCCO)c2c1 | % | 96 |
| Cc1ccc(-c2c3nc(c(-c4ccc(C)cc4)c4ccc([nH]4)c(-c4ccc(C)cc4)c4nc(c(-c5ccncc5)c5ccc2[nH]5)C=C4)C=C3)cc1.Cc1ccc(-c2c3nc(c(-c4ccc(C)cc4)c4ccc([nH]4)c(-c4ccc(C)cc4)c4nc(c(-c5ccncc5)c5ccc2[nH]5)C=C4)C=C3)cc1.O=S(=O)([O-])C(F)(F)F.[Pt+2].c1ccc([PH+](CCC[PH+](c2ccccc2)c2ccccc2)c2ccccc2)cc1 | % | 60 |
| CCCCCCC[n+]1ccc(C(=O)c2ccccc2)cc1 | % | 99 |
| CC(=O)OCC1OC(SSc2ccccc2)C(OC(C)=O)C(OC(C)=O)C1OC(C)=O (centres undefined) | % | 73 |
| O=Nc1c2n[nH]c1CCCCCCCCC2 | % | 99 |
| Cc1cc(=O)c2cc(N=Cc3ccc([N+](=O)[O-])o3)ccc2o1 | % | 49 |
| COc1cc(C2C(Cl)C(=O)N2NC(=O)c2ccccc2O)cc(OC)c1OC (centres undefined) | % | 87 |
| Cc1ccc(S(=O)(=O)CC2(Br)CCc3ccccc3C2=O)cc1 (centres undefined) | % | 48 |
| O=C(C(Cl)Cl)N(O)c1ccccc1OCc1ccccc1 | % | 95 |
| COc1ccc2ccnc(Cc3ccc(OCc4ccccc4)c(OC)c3)c2c1 | % | 29 |
| CN(C)c1ccc(C2CC(C)(N3CCCC3)Oc3cc4c(cc32)OCO4)cc1 (centres undefined) | % | 32 |
| CC(C)=CC(=O)OC(CCCc1ccccc1)c1ccc2c(c1)OCO2 (centres undefined) | % | 14 |

---

growth inhibition values by entry
assay: NCI Yeast Anticancer Drug Screen. Data for the mlh1 rad18 strain (AID 175)
measurement.parameters: S. cerevisiae mlh1 rad18 strain growth inhibition; at 5.0 µM (retest, dose inferred, filed as 0.5); hits give high values
The panel holds about 79,000 compounds, 15% with a hit somewhere; the sample as a whole holds those more often.

| molecule | units.of.measure | growth inhibition |
| --- | --- | --- |
| O=C1OC(CC(=O)c2ccc(Cl)cc2Cl)C(Cl)=C1Cl (stereo not drawn) | % | -1 |
| NC(=O)N/N=C(/Cc1nc2ccccc2nc1C/C(=N/NC(N)=O)c1cccc2ccccc12)c1cccc2ccccc12 | % | -6 |
| Cc1ccc(SCc2ccc(Cl)cc2Cl)nn1 | % | -3 |
| O=C(O)/C(Cl)=C(\Cl)C(=O)Nc1c(Cl)cccc1Cl | % | 19 |
| CCCCOC(c1ccccc1)N1CCCCC1 (stereo not drawn) | % | -4 |
| CC(c1ccccc1)[P+](c1ccccc1)(c1ccccc1)c1ccccc1 (stereo not drawn) | % | 16 |
| O=C1c2ccc(S(=O)(=O)O)cc2C(=O)c2ccc(S(=O)(=O)O)cc21 | % | 4 |
| Cc1c(-c2ccccc2)sc(/N=C/c2cc(Br)cc(Br)c2O)c1C#N | % | 10 |
| O=C(NCCCN1CC2CCCC2C1)C(C1CCCCC1)C1CCCCC1 (stereo not drawn) | % | -3 |
| O=C(NCCCN1CCN(CCCNC(=O)c2cc(-c3ccccc3)nc3ccccc23)CC1)c1cc(-c2ccccc2)nc2ccccc12 | % | 38 |
| COc1cc(CNc2nc3ccccc3nc2-c2cccs2)cc(OC)c1OC | % | -17 |
| CC(=O)OC1CCC2(C)C3CCC4(C)C(CCC4(Br)C(=O)CBr)C3CC(Br)C2(Br)C1 (stereo not drawn) | % | 3 |
| CC(C)c1ccc2c(c1)CCC1C(C)(CNC(=O)S)CCCC21C.[Zn+2] (stereo not drawn) | % | 5 |
| O=C(C(Cl)Cl)N(O)c1ccccc1OCc1ccccc1 | % | 56 |
| COc1cc(/C=C/C(=O)c2ccc(O)c(OC)c2)ccc1O | % | 18 |
| CCNc1ccccc1C | % | 3 |
| O=C1C(Cl)=C(Cl)C(=O)c2cc(Cl)c(Cl)cc21 | % | 60 |
| Oc1ccc(O)c2nc3ccccc3nc12 | % | 24 |
| CN(NC(=O)/C(=C\c1ccco1)NC(=O)c1ccccc1)c1cn[nH]c(=O)c1Cl | % | -6 |
| Nc1nnc2nc(CC(=O)c3ccc([N+](=O)[O-])cc3)c(CC(=O)c3ccc([N+](=O)[O-])cc3)nn12 | % | 4 |
| Cc1ccc(Nc2nc3nc[nH]c3c(=O)[nH]2)cc1CO | % | 15 |
| COc1ccc(C(=O)[O][Sn]([c]2ccccc2)([c]2ccccc2)[c]2ccccc2)c(OC)c1OC | % | 99 |
| COc1ccc(-c2nc(C)[nH]c(=O)c2Cc2c(O)ccc3ccccc23)cc1 | % | 2 |
| Cc1ncc(CO)c(C=NCCCCCCN=Cc2c(CO)cnc(C)c2[O-])c1[O-].[Cu+2] | % | -2 |
| O=C(CBr)Nc1ccc(Cc2ccc(NC(=O)CBr)cc2)cc1 | % | 25 |
| O=C1CCCCC1Sc1ccc(Cl)cc1 (stereo not drawn) | % | 2 |
| Cc1ccc(S(=O)(=O)N/N=C2\CC(C)OC3=C2CCCCCC3)cc1 (stereo not drawn) | % | 31 |
| [Cl][Ge]([c]1ccccc1)[c]1ccccc1.[Cl][Ge]([c]1ccccc1)[c]1ccccc1 | % | 12 |
| CCCCCC[C@@H](O)C/C=C\CCCCCCCC(=O)OCCCC | % | 0 |
| Cc1ccc(O)c(N=Nc2ccc(Cl)cc2)c1 | % | -3 |
| CCCn1c(=O)c2ccccc2[n+]2c(-c3ccc([N+](=O)[O-])cc3)csc12 | % | 11 |
| C=CCCCCCCCCC(=O)OCC=C | % | -2 |
| CC(Cc1ccccc1)N1C(=O)C=CC1=O (stereo not drawn) | % | 47 |
| Clc1nn2nnnc2c2ccccc12 | % | -102 |
| CCC1C(c2cccc(OC)c2O)c2cc3c(cc2OC1N1CCCC1)OCO3 (stereo not drawn) | % | 22 |
| COc1ccc(-c2cc(C(=O)O)c3cccc(C(F)(F)F)c3n2)cc1 | % | 17 |
| Cc1cccc(/C=N/Nc2cc(C)nc3ccccc23)n1 | % | -1 |
| COc1ccc(OC2OC(COC(c3ccccc3)(c3ccc(OC)cc3)c3ccc(OC)cc3)C(O)C(O)C2O)cc1 (stereo not drawn) | % | -11 |

---

assay: NCI Yeast Anticancer Drug Screen. Data for the mec2-1 strain (AID 157)
measurement.parameters: S. cerevisiae mec2-1 strain, at 50.0 µM, hits give high values
Compounds without any hit were thinned out: in the full panel of roughly 79,000, 15% have a hit.

| molecule | units.of.measure | growth inhibition |
| --- | --- | --- |
| O=C(N/N=C/c1ccc2c(c1)OCO2)c1ccc([N+](=O)[O-])cc1 | % | 14.5 |
| COc1cc(C(c2cc3c(cc2O)OCO3)N2CCN(C(c3cc(OC)c(O)c(OC)c3)c3cc4c(cc3O)OCO4)CC2)cc(OC)c1O (stereo unspecified) | % | 41 |
| CC(C)(Cl)C(Cl)CC/C(CBr)=C(\Cl)CBr (stereo unspecified) | % | 92.3 |
| Cc1nn(C)c2ccc3ccccc3c(=O)c12 | % | 45 |
| C=CCOC(=O)N(C(=O)OCC=C)C(Cc1ccc(O)cc1)C(=O)NNc1ccccc1 (stereo unspecified) | % | 44.5 |
| CC(C)(COC(=O)Nc1cccc(Cl)c1)[N+](=O)[O-] | % | 5.6 |

Measured values drawn from PubChem BioAssay (NCI) for this set.
